Test system: LG0567-F671-PDC KRAS tumor spheroid viability
Assay: Anticancer human tumor LG0567-F671-PDC patient-derived lung adenocarcinoma cell line growth inhibition [KRAS2]
Conditions: second compound 10 µM; first compound 0.316 µM; hits give low values; spheroids with HUVEC and MSC
For each of the compounds below, state its viability, T/C.
Write the number in % without appending the unit.

Data point: COc1cc2nccc(Oc3ccc(NC(=O)C4(C(=O)Nc5ccc(F)cc5)CC4)cc3)c2cc1OC + CC1OCC2(CCN(c3cnc(Sc4ccnc(N)c4Cl)c(N)n3)CC2)C1N ; viability, T/C = 8.96

Data point: CC(=O)OC12COC1CC(O)C1(C)C(=O)C(O)C3=C(C)C(OC(=O)C(O)C(NC(=O)OC(C)(C)C)c4ccccc4)CC(O)(C(OC(=O)c4ccccc4)C21)C3(C)C (centres undefined) + COc1cc2nc(C)nc(NC(C)c3cc(N)cc(C(F)(F)F)c3)c2cc1OC1CCOC1 ; viability, T/C = 54.6

Data point: CC1(C)CCC(CN2CCN(c3ccc(C(=O)NS(=O)(=O)c4ccc(NCC5CCOCC5)c([N+](=O)[O-])c4)c(Oc4cnc5[nH]ccc5c4)c3)CC2)=C(c2ccc(Cl)cc2)C1 + CNCc1ccccc1-c1csc(C(C)Nc2nc(C)nc3cc(OC)c(OC)cc23)c1 ; viability, T/C = 0.6

Data point: CC1OCC2(CCN(c3cnc(Sc4ccnc(N)c4Cl)c(N)n3)CC2)C1N (centres undefined) + COc1cc2nc(C)nc(NC(C)c3cc(N)cc(C(F)(F)F)c3)c2cc1OC1CCOC1 ; viability, T/C = 28.9

###

For each of the compounds below, state its viability, T/C.
Test system: LG0567-F671-PDC KRAS tumor spheroid viability
Assay: Anticancer human tumor LG0567-F671-PDC cell line growth inhibition [KRAS2];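 further: drug exposure lasted seven days after spheroids formed for three days; 100% = DMSO vehicle control viability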
Details: second compound 0.1 µM; first compound 0.1 µM; hits give low values; spheroids with HUVEC and MSC
Write the number in % without appending the unit.

Data point: CC(C)n1nc(-c2ccc3oc(N)nc3c2)c2c(N)ncnc21 + C=CC(=O)N1CCN(c2nc(=O)n(-c3c(C)ccnc3C(C)C)c3nc(-c4c(O)cccc4F)c(F)cc23)C(C)C1 ; viability, T/C = 8.13

Data point: CC1COCCN1c1cc(-c2ccnn2C)c2ccnc(-c3ccn[nH]3)c2n1 (configuration not stated) + CNCc1ccccc1-c1csc(C(C)Nc2nc(C)nc3cc(OC)c(OC)cc23)c1 ; viability, T/C = 60.2

Data point: COC(=O)c1ccc2c(C(=Nc3ccc(N(C)C(=O)CN4CCN(C)CC4)cc3)c3ccccc3)c(O)[nH]c2c1 + C=CC(=O)N1CCN(c2nc(=O)n(-c3c(C)ccnc3C(C)C)c3nc(-c4c(O)cccc4F)c(F)cc23)C(C)C1 ; viability, T/C = 22

Data point: COc1cc(Nc2ncc3c(n2)-c2ccc(Cl)cc2C(c2c(F)cccc2OC)=NC3)ccc1C(=O)O + CC1OCC2(CCN(c3cnc(Sc4ccnc(N)c4Cl)c(N)n3)CC2)C1N ; viability, T/C = 49.6

Data point: CC(=O)OC12COC1CC(O)C1(C)C(=O)C(O)C3=C(C)C(OC(=O)C(O)C(NC(=O)OC(C)(C)C)c4ccccc4)CC(O)(C(OC(=O)c4ccccc4)C21)C3(C)C (configuration not stated) + CNCc1ccccc1-c1csc(C(C)Nc2nc(C)nc3cc(OC)c(OC)cc23)c1 ; viability, T/C = 43.9

Data point: Cn1ncnc1[C@H]1c2n[nH]c(=O)c3cc(F)cc(c23)N[C@@H]1c1ccc(F)cc1 + COc1cc2nc(C)nc(NC(C)c3cc(N)cc(C(F)(F)F)c3)c2cc1OC1CCOC1 ; viability, T/C = 82.8

Data point: COc1cc2nccc(Oc3ccc(NC(=O)C4(C(=O)Nc5ccc(F)cc5)CC4)cc3)c2cc1OC + C=CC(=O)N1CCN(c2nc(OCC3CCCN3C)nc3c2CCN(c2cccc4cccc(C)c24)C3)CC1CC#N ; viability, T/C = 22.9

Origin of measurements: PubChem BioAssay AID1963856
